Collected pEC50 values appear next to each entry.
system_name: human ALX receptor (Homo sapiens)
test_description: Intracellular calcium measurements (FLIPR), agonistic activity in HEK293-hALXR-Gα16 cells
test_context: Fluo-4 calcium FLIPR, normalized to WKYMVm 10 nM
Method: The ALX receptor and FPRL2 agonistic activities of the compounds of formula (I) are determined in accordance with the following experimental method. Intracellular Calcium Measurements: Cells expressing recombinant human ALX receptor and the G-protein Gα16 (HEK293-hALXR-Gα16) were grown to 80% confluency in Growing Medium (GM). […] Changes in fluorescence were monitored before and after the addition of test compounds at lex=488 nm and lem=540 nm. […]
pEC50: −log10 of the molar value.
value_type: pEC50

compound | value_type | reported_measurement
O=C(NC1CCNCC1)[C@H]1[C@H](C(=O)Nc2ncc(Br)s2)[C@@H]2CC[C@H]1C21CC1 | pEC50 | 7.62
CN1CCC(NC(=O)[C@H]2[C@H](C(=O)Nc3ccc(Br)cc3)[C@@H]3C=C[C@H]2C32CC2)CC1 (racemic) | pEC50 | 6.83
COC(=O)CCNC(=O)[C@H]1[C@H](C(=O)Nc2ccc(Br)cc2)[C@@H]2C=C[C@H]1C21CC1 (racemic) | pEC50 | 7.66
O=C(NCCCCN1CCCC1)[C@H]1[C@H](C(=O)NCc2ccc(Br)c(F)c2F)[C@@H]2C=C[C@H]1C21CC1 | pEC50 | 7.40
O=C(NCC1(O)CCCCC1)[C@H]1[C@H](C(=O)Nc2ncc(Br)s2)[C@@H]2CC[C@H]1C21CC1 | pEC50 | 6.89
Cc1nc(CCNC(=O)[C@H]2[C@H](C(=O)Nc3ccc(Br)cc3)[C@H]3C=C[C@@H]2C32CC2)[nH]c1C (relative stereo) | pEC50 | 7.11

---

system_name: UniProt P25090
test_description: Intracellular calcium measurements (FLIPR), agonistic activity in HEK293-hALXR-Gα16 cells
test_context: Fluo-4 calcium FLIPR, normalized to WKYMVm 10 nM
The label yes (1) is reserved for EC50 strictly under 0.06 µM; no (0) covers values equal to or above it.

compound | system_name | assigned_label
O=C(NC[C@H]1[C@H](C(=O)Nc2ccc(Br)cc2)[C@@H]2C=C[C@H]1C21CC1)c1ccnn1-c1ccccc1 (racemic) | UniProt P25090 | no (0)
O=C(N[C@H]1CC[C@H](O)CC1)[C@H]1[C@H](C(=O)Nc2ccc(Br)cc2)[C@@H]2C=C[C@H]1C21CC1 (racemic) | UniProt P25090 | yes (1)
CN(C)CC(=O)NC[C@H]1[C@H](C(=O)Nc2ccc(Br)cc2)[C@@H]2C=C[C@H]1C21CC1 (racemic) | UniProt P25090 | no (0)
CCN(CC)CCCC(C)NC(=O)C1C(C(=O)Nc2ccc(Br)cc2)C2C=CC1C21CC1 (mixture of isomers) | UniProt P25090 | yes (1)
O=C(NCCCCN1CCCC1)[C@H]1[C@H](C(=O)NCc2ccc(Br)c(F)c2)[C@@H]2C=C[C@H]1C21CC1 | UniProt P25090 | no (0)

---

system_name: human ALX receptor (Homo sapiens)
test_description: Intracellular calcium measurements (FLIPR), agonistic activity in HEK293-hALXR-Gα16 cells
test_context: Fluo-4 calcium FLIPR, normalized to WKYMVm 10 nM
pEC50: −log10 of the molar value.
The entries below are paired with their reported pEC50.
value_type: pEC50

compound | reported_measurement
CC(C)(C)CCNC(=O)[C@H]1[C@H](C(=O)Nc2ccc(Br)cc2)[C@@H]2C=C[C@H]1C21CC1 (racemic) [Example 85] | 6.84
CCN(CC)CCCCNC(=O)[C@H]1[C@H](C(=O)Nc2ccc(Br)cc2)[C@@H]2C=C[C@H]1C21CC1 (racemic) [Example 11] | 9.00
CNC(=O)CCNC(=O)[C@H]1[C@H](C(=O)Nc2ccc(Br)cc2)[C@@H]2C=C[C@H]1C21CC1 (racemic) [Example 223] | 8.49

---

system_name: human ALX receptor (Homo sapiens, UniProt P25090)
Sequence (P25090 whole entry): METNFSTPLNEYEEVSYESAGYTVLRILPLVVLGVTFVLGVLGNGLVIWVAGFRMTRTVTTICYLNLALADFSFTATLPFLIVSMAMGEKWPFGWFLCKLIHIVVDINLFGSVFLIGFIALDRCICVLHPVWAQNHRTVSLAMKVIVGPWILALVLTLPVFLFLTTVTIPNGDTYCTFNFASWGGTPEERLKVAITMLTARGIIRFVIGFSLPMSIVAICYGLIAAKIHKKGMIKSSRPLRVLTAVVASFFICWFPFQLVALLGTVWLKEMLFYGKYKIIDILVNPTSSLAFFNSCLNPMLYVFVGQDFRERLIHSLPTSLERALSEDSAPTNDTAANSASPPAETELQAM
test_description: Intracellular calcium measurements (FLIPR), agonistic activity in HEK293-hALXR-Gα16 cells
test_context: Fluo-4 calcium FLIPR, normalized to WKYMVm 10 nM
Protocol: The ALX receptor and FPRL2 agonistic activities of the compounds of formula (I) are determined in accordance with the following experimental method. Intracellular Calcium Measurements: Cells expressing recombinant human ALX receptor and the G-protein Gα16 (HEK293-hALXR-Gα16) were grown to 80% confluency in Growing Medium (GM). […] Changes in fluorescence were monitored before and after the addition of test compounds at lex=488 nm and lem=540 nm. […]
pEC50: −log10 of the molar value.
Tick true if pEC50 is 8 or greater. Tick false if pEC50 is less than 8.

compound | assigned_label
O=C(NCCCCN1CCCC1)[C@H]1[C@H](C(=O)NCc2cccc(Cl)c2F)[C@@H]2C=C[C@H]1C21CC1 (racemic) [Example 349] | false
O=C(NCCCCN1CCCC1)[C@H]1[C@H](C(=O)NCc2ccc(F)cc2)[C@@H]2C=C[C@H]1C21CC1 (racemic) [Example 231] | false
NCCCCCNC(=O)[C@H]1[C@H](C(=O)Nc2ncc(Br)s2)[C@@H]2CC[C@H]1C21CC1 [Example 334] | true
O=C(NCCCCN1CCCC1)[C@H]1[C@H](C(=O)Nc2ccc(Br)c(Cl)c2)[C@@H]2C=C[C@H]1C21CC1 [Example 297] | false
CCOCCCNC(=O)[C@H]1[C@H](C(=O)NCc2ccc(Br)cc2)[C@@H]2C=C[C@H]1C21CC1 (racemic) [Example 263] | false
CC(=O)c1csc(CNC(=O)[C@H]2[C@H](C(=O)NCCN(C)C)[C@H]3C=C[C@@H]2C32CC2)n1 (racemic) [Example 266] | false
NCCCNC(=O)[C@H]1[C@H](C(=O)NCc2ccc(Br)cc2)[C@@H]2C=C[C@H]1C21CC1 (racemic) [Example 307] | false
O=C(NCCCCN1CCCC1)[C@H]1[C@H](C(=O)Nc2nc(Br)cs2)[C@@H]2C=C[C@H]1C21CC1 [Example 394] | false
O=C(NC1CCNCC1)[C@H]1[C@H](C(=O)NCc2ccc(Br)cc2)[C@@H]2C=C[C@H]1C21CC1 (racemic) [Example 306] | false
O=C(Nc1ncc(Br)s1)C1C(C(=O)NC2CCC(CO)CC2)C2CCC1C21CC1 (single isomer, unassigned) [Example 410] | false
COc1ccc(CNC(=O)[C@H]2[C@H](C(=O)NCCCCN3CCCC3)[C@H]3C=C[C@@H]2C32CC2)cc1Cl (racemic) [Example 374] | false
CC1CCC(NC(=O)C2C(C(=O)NCCCCN3CCCC3)C3C=CC2C32CC2)CC1 (mixture of isomers) [Example 126] | false
Cc1ccncc1C(=O)NC[C@H]1[C@H](C(=O)Nc2ccc(Br)cc2)[C@@H]2C=C[C@H]1C21CC1 (racemic) [Example 171] | false
CN(C)C(=O)CCNC(=O)[C@H]1[C@H](C(=O)Nc2ccc(Br)cc2)[C@@H]2C=C[C@H]1C21CC1 (racemic) [Example 204] | true
O=C(NCCCCN1CCCC1)[C@H]1[C@H](C(=O)NCc2cc(F)cc(F)c2F)[C@@H]2C=C[C@H]1C21CC1 (racemic) [Example 355] | false
O=C(N[C@@H]1CC[C@@H](CN2CCCC2)OC1)[C@H]1[C@H](C(=O)Nc2ccc(Br)cc2)[C@@H]2C=C[C@H]1C21CC1 [Example 216] | true
O=C(Nc1ncc(Br)s1)C1C(C(=O)NC2CCC(CO)CC2)C2CCC1C21CC1 (single isomer, unassigned) [Example 411] | false
O=C(NCCCCN1CCCC1)[C@H]1[C@H](C(=O)Nc2ccc(Br)cn2)[C@@H]2C=C[C@H]1C21CC1 [Example 294] | true
O=C(NCCF)[C@H]1[C@H](C(=O)Nc2ncc(Br)s2)[C@@H]2C=C[C@H]1C21CC1 (racemic) [Example 259] | false
Cc1nonc1CNC(=O)[C@H]1[C@H](C(=O)NCCCCN2CCCC2)[C@H]2C=C[C@@H]1C21CC1 (racemic) [Example 356] | false
O=C(NCCCCN1CCCC1)[C@H]1[C@H](C(=O)NCc2cccc(C(F)(F)F)c2F)[C@@H]2C=C[C@H]1C21CC1 (racemic) [Example 357] | false
Cc1nsc2ccc(NC(=O)[C@H]3[C@H](C(=O)NCCCCN4CCCC4)[C@H]4C=C[C@@H]3C43CC3)cc12 (racemic) [Example 146] | false

---

In this section we review reported pEC50 values for a set of molecules.
system_name: human ALX receptor (Homo sapiens)
test_description: Intracellular calcium measurements (FLIPR), agonistic activity in HEK293-hALXR-Gα16 cells
test_context: Fluo-4 calcium FLIPR, normalized to WKYMVm 10 nM
pEC50: −log10 of the molar value.
value_type: pEC50

molecule | system_name | relation_sign | reported_measurement
CC(C)CNC(=O)[C@H]1[C@H](C(=O)NCc2ccc(Br)cc2)[C@@H]2C=C[C@H]1C21CC1 (racemic) | human ALX receptor (Homo sapiens) | = | 6.72
NC(=O)CCNC(=O)[C@H]1[C@H](C(=O)Nc2ccc(Cl)nc2)[C@@H]2C=C[C@H]1C21CC1 | human ALX receptor (Homo sapiens) | = | 7.51
COc1ccc(C)cc1CNC(=O)[C@H]1[C@H](C(=O)NCCCCN2CCCC2)[C@H]2C=C[C@@H]1C21CC1 (racemic) | human ALX receptor (Homo sapiens) | < | 4.60
O=C(NCCCCN1CCCC1)[C@H]1[C@H](C(=O)NCc2ccc(Br)cc2F)[C@@H]2CC[C@H]1C21CC1 | human ALX receptor (Homo sapiens) | = | 7.89
O=C(NCCCCN1CCCC1)[C@H]1[C@H](C(=O)NCCc2ccc(Cl)cc2)[C@@H]2C=C[C@H]1C21CC1 | human ALX receptor (Homo sapiens) | = | 5.08
COc1ccc(NC(=O)[C@H]2[C@H](C(=O)NCCCCN3CCCC3)[C@H]3C=C[C@@H]2C32CC2)cn1 (racemic) | human ALX receptor (Homo sapiens) | = | 6.17
